experiment: gradient 5% acetonitrile 3 min, to 50% in 2 min, to 85% in 15 min, held 3 min, 100 µL/min
test_conditions: column: Zorbax Extend-C18 2.1 x 50 mm; eluents: water / acetonitrile, 0.1% formic acid
reported_property: RP-LC retention time (s)

Cc1ccc(NC2CC(=O)N(c3cccc([N+](=O)[O-])c3)C2=O)cc1 (stereo not given) :: 882
CCC(=O)n1nc(-c2cccc(C)c2)nc1N :: 890
O=C(c1nnc(-c2ccc(S(=O)(=O)N3CCOCC3)cc2)o1)N1CCN(c2ccccc2)CC1 :: 905
Cc1csc(-c2cc(S(=O)(=O)NC3CCCCC3)cn2CC(=O)N2CCCC2)n1 :: 927
CCS(=O)(=O)N1CC(c2nc(-c3ccc(F)cc3)no2)C2(CCOCC2)C1 (stereo not given) :: 877

====

experiment: gradient 5% acetonitrile 3 min, to 50% in 2 min, to 85% in 15 min, held 3 min, 100 µL/min
test_conditions: column: Zorbax Extend-C18 2.1 x 50 mm; eluents: water / acetonitrile, 0.1% formic acid
reported_property: RP-LC retention time (s)

CCc1nc2c(NC(=O)NCc3ccccc3)cccn2n1 :: 778
CCN(CC)c1ncc2c(n1)CCC(C(=O)NCc1ccc(C(C)C)cc1)C2 (stereo not drawn) :: 821
CCn1cc(C(=O)Nc2cccc(C(C)=O)c2)c2nn(-c3ccccc3)c(=O)c-2c1 :: 808

====

experiment: gradient 5% acetonitrile 3 min, to 50% in 2 min, to 85% in 15 min, held 3 min, 100 µL/min
test_conditions: column: Zorbax Extend-C18 2.1 x 50 mm; eluents: water / acetonitrile, 0.1% formic acid
reported_property: RP-LC retention time (s)

CCn1c(=O)oc2cc(-c3noc(CNC(=O)c4ccccc4)n3)ccc21 :: 801
COc1ccc(-c2nc3ccc(C)cn3c2Nc2ccc(C)cc2)cc1 :: 778
Cc1ccc(C(=O)NC2CCN(c3cc(-c4ccc(Cl)cc4)[nH]n3)C2)cc1 (centres undefined) :: 821
CCOc1cc(=O)n2c(c1C(=O)Nc1ccc(Br)cc1)CCCC2 :: 798

====

experiment: gradient 5% acetonitrile 3 min, to 50% in 2 min, to 85% in 15 min, held 3 min, 100 µL/min
test_conditions: column: Zorbax Extend-C18 2.1 x 50 mm; eluents: water / acetonitrile, 0.1% formic acid
reported_property: RP-LC retention time (s)

# example entries with known answers
O=C(C1CCN(S(=O)(=O)c2ccc(-c3noc(-c4cccc(F)c4)n3)cc2)CC1)N1CCCC1 :: 1020
CC1(C)Cc2c(C#N)c(N3CCN(C(=O)c4ccc([N+](=O)[O-])cc4)CC3)nc(-c3ccccc3)c2CO1 :: 1140
CCc1ccc(CNC(=O)C2CCCN(c3nn4c(=O)c5c(nc4s3)CCCC5)C2)cc1 (stereo not given) :: 983
O=C(NC(Cc1ccccc1)c1nnc(N2CCCCCC2)o1)C1CC1 (stereo not given) :: 788

I. Cc1cc(C)cc(C(=O)NCc2ccc(N3CCOCC3)nc2)c1
II. CCN1C=C(C(=O)OCc2cccc(C)c2)C(C)=NS1(=O)=O
Kindly identify which of I and II has the larger recorded RP-LC retention time value. API: response body contains the label of the selected item.
II

A. O=C(Cc1nnc(-c2ccccc2)o1)N1CCSCC1
B. CCOC(=O)c1cccc(NC(=O)Cn2c(C)nc3c(sc4nc(-c5ccccc5)ccc43)c2=O)c1
Lab note: check whether A or B shows the higher recorded RP-LC retention time. Give the chosen item's label as your response.
B
(B: 1090 s, A: 698 s)

====

experiment: gradient 5% acetonitrile 3 min, to 50% in 2 min, to 85% in 15 min, held 3 min, 100 µL/min
test_conditions: column: Zorbax Extend-C18 2.1 x 50 mm; eluents: water / acetonitrile, 0.1% formic acid
reported_property: RP-LC retention time (s)

Cc1nnc2ccc(N3CCC(C(=O)NC(C)CCc4ccccc4)CC3)nn12 (stereo not drawn) :: 779

a. Cc1nnc(-c2nnc(NCc3ccccc3)c3ccccc23)o1
b. CC(=O)Nc1nnc(C2=COCCO2)o1
Smaller RP-LC retention time value? Options are a and b // return label of chosen record
b

====

experiment: gradient 5% acetonitrile 3 min, to 50% in 2 min, to 85% in 15 min, held 3 min, 100 µL/min
test_conditions: column: Zorbax Extend-C18 2.1 x 50 mm; eluents: water / acetonitrile, 0.1% formic acid
reported_property: RP-LC retention time (s)

CN1C(=O)c2ccccc2Oc2ccc(C(=O)NCc3ccco3)cc21 :: 788
CC(C)(C)NC(=O)C1CCN(S(=O)(=O)c2cc(-c3noc(C4CCC4)n3)cs2)CC1 :: 1030
COc1cccc(N2CCN(C(=O)c3cc(C4CC4)[nH]n3)CC2)c1 :: 813

====

experiment: gradient 5% acetonitrile 3 min, to 50% in 2 min, to 85% in 15 min, held 3 min, 100 µL/min
test_conditions: column: Zorbax Extend-C18 2.1 x 50 mm; eluents: water / acetonitrile, 0.1% formic acid
reported_property: RP-LC retention time (s)

Cc1c(-c2noc(-c3ccccc3)n2)nnn1-c1ccccc1 :: 1060
COc1cc(NC(=O)Cc2csc3nc(-c4ccc(C)c(C)c4)cn23)cc(OC)c1 :: 772
COc1ccc(-c2csc(CN3CCN(C(=O)c4c(F)cccc4Cl)CC3)n2)cc1 :: 805
COCCN1C(=O)CC[C@]2(C(=O)N(C)Cc3cccnc3)CCCC[C@@H]12 :: 544
C=C(C)C(=O)Nc1ccc(NC(C)C)cc1 :: 629

A. O=C(Cn1cccc1-c1nc(-c2ccc3c(c2)OCO3)no1)Nc1cc(F)ccc1F
B. COc1ccc(CN(Cc2cc(=O)n3ccccc3n2)CC(C)C)cc1OC
# query: argmin of RP-LC retention time over A and B Write down the label attached to your selection.
B

a. CCCC(=O)N1CCN(c2nc3ccccc3n(CC(C)C)c2=O)CC1
b. Cc1ccc(F)c2c(=O)c3c([nH]c12)CCN(CC(=O)Nc1ccc(Cl)cc1)C3
Param pair: a , b . Output: the one whose RP-LC retention time is numerically greater. // respond with label for picked entry
a
(a: 1000 s, b: 646 s)

====

experiment: gradient 5% acetonitrile 3 min, to 50% in 2 min, to 85% in 15 min, held 3 min, 100 µL/min
test_conditions: column: Zorbax Extend-C18 2.1 x 50 mm; eluents: water / acetonitrile, 0.1% formic acid
reported_property: RP-LC retention time (s)

CCSc1ccc(-c2cccc(NC(=O)COC)c2)nn1 :: 762
COc1cccc(CC(=O)N2CCN3CCS(=O)(=O)N(C4CC4)C(=O)C3C2)c1 (stereo not drawn) :: 747
CCc1ccc(S(=O)(=O)N2CCC(c3nc(C(=O)N4CCCC4)c(C)o3)CC2)cc1 :: 1010
CCOc1ccc(CC(=O)N2CCCC2c2nc(-c3ccc(OC)c(OC)c3)no2)cc1OCC (stereo not drawn) :: 925
O=C(c1cc(-c2ccco2)[nH]n1)N1CCN(c2ncccn2)CC1 :: 640
CCCCCNC(=O)C1CCCN(c2ncc(-c3ccc(F)cc3)cn2)C1 (stereo not drawn) :: 1060
CCCc1nc2ccc(CCC(=O)Nc3ccc(OC)c(OC)c3)cc2[nH]1 :: 610
COCCNC(=O)C1(C)CCC(=O)N1CCc1c[nH]c2ccccc12 (stereo not drawn) :: 653
CC(C)C(=O)N1CCc2cc(C(=O)NC3CC3)ccc21 :: 698
C=CCNC(=O)C1CCN(C(=O)Nc2ccc(NC(=O)Nc3ccccc3F)cc2)CC1 :: 710
CC1Oc2ccc(S(=O)(=O)N3CCC(C(=O)NCCc4ccccc4)CC3)cc2NC1=O (stereo not drawn) :: 792
O=C(Nc1ccc(F)cc1)c1ccc(Cl)s1 :: 908
COCC(=O)NC1CCC12CCN(C(=O)CC1CCCCC1)CC2 (stereo not drawn) :: 778

====

experiment: gradient 5% acetonitrile 3 min, to 50% in 2 min, to 85% in 15 min, held 3 min, 100 µL/min
test_conditions: column: Zorbax Extend-C18 2.1 x 50 mm; eluents: water / acetonitrile, 0.1% formic acid
reported_property: RP-LC retention time (s)

CCc1nc(OCC(=O)NCc2ccccc2Cl)c2c(C)c(C)oc2n1 :: 1020

1. CCOC(=O)COc1cc(-c2ccc(C)cc2)nc2ccc(NC(=O)C3CCC3)cc12
2. COc1ccc(OC)c(-c2cc(C(=O)N3CCN(Cc4ccsc4)CC3)n(C)n2)c1
Form: Entry with minimum RP-LC retention time (choose one): 1 / 2 Your choice should be expressed through its label.
2
(2: 580 s, 1: 1060 s)

====

experiment: gradient 5% acetonitrile 3 min, to 50% in 2 min, to 85% in 15 min, held 3 min, 100 µL/min
test_conditions: column: Zorbax Extend-C18 2.1 x 50 mm; eluents: water / acetonitrile, 0.1% formic acid
reported_property: RP-LC retention time (s)

Cc1ccc(-c2nc3ncccn3c2Nc2c(C)cccc2C)cc1 :: 820
COc1ccc(CN2CC(C(=O)NC3(c4nc(C)no4)CCCCC3)CC2=O)cc1 (stereo not drawn) :: 706
Clc1ccc(-c2csc(N3CCC(c4ccccc4)C3)n2)cc1 (stereo not drawn) :: 814
O=C(Nc1ccc(S(=O)(=O)N2CCc3ccccc32)cc1)c1ccc(Br)o1 :: 960
O=C(Nc1ccc(F)c(F)c1)c1c(O)c2cccnc2n(-c2ccccc2)c1=O :: 916
CCN1C(=O)c2cccnc2Sc2cc(CNC(=O)c3ccc(OC)cc3OC)ccc21 :: 784
COc1ccc(N2CCN(c3cc(SCC(=O)Nc4ccc5c(c4)OCO5)ncn3)CC2)cc1 :: 900
CN(C)S(=O)(=O)c1ccc2c(c1)N(CC(=O)NCc1ccc(Cl)cc1)C(=O)C1CCCCN21 (stereo not drawn) :: 932

Ref: the METLIN SMRT retention time set (Domingo-Almenara et al. 2019)
